Here the recorded pIC50 is given for each entry.
# tgt: tyrosinase from mushroom
# method-description: Inhibition of commercial mushroom tyrosinase (L-DOPA or L-tyrosine substrate)
# Format: biochemical
# assay-conditions: L-tyrosine; read-out: Tyrosinase inhibition with L-tyrosine, IC50
# Procedure: The following substrates were used for the enzymatic reaction: L-tyrosine and L-3,4-dihyroxyphenylalanine (L-DOPA). Both substrates were used in independent experiments. […] After a 25-minute incubation, the absorbance was measured at 475 nm using a microplate reader. The percentage of inhibition of tyrosinase activity was calculated using the formula: [(AC -AT)/AC] × 100, where AC - is the absorbance of the negative control, AT - is the absorbance of the sample containing the tested compound.
pIC50: −log10 of the molar value.

{"compound": "O=C(/C=C/c1ccc(Cl)cc1)NCCCO [H-330/21]", "tgt": "tyrosinase from mushroom", "pIC50": 3.97}
{"compound": "O=C(/C=C/c1ccccc1)NCCCCO [Compound A-43]", "tgt": "tyrosinase from mushroom", "pIC50": 2.99}
{"compound": "CCC(CO)NC(=O)/C=C/c1ccc(Cl)cc1 (stereo not shown) [Compound A-01]", "tgt": "tyrosinase from mushroom", "pIC50": 3.55}
{"compound": "O=C(/C=C/c1ccc(Cl)cc1)NCCO [H-427/21]", "tgt": "tyrosinase from mushroom", "pIC50": 3.71}
